// data source = paper PMC6056500

Target: ATP-binding cassette transporter A1 (ABCA1) (Homo sapiens, UniProt O95477)
Construct: recombinant ABCA1 peptide (Abcam #ab125995), C-terminal domain 2085–2245aa
Sequence (O95477 2085-2245): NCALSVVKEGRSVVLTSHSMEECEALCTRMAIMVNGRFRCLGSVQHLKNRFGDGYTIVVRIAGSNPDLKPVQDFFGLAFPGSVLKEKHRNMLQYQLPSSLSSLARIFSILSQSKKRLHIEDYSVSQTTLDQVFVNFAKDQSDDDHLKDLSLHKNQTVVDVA
Assay: SPR (Biacore […], immobilized ABCA1 C-terminal peptide on CM5 chip); also identified by NPOT in THP-1 extract
pKd: −log10 of the molar value.

{"compound": "CN1c2ccccc2C(=O)N2CCc3c([nH]c4ccccc34)C21 (stereo in doubt)", "pKd": 6.09}
